Recorded pEC50 by entry
Test system: A2780 ovarian cancer cells
Experiment: Cellular proliferation in A2780 cells, Cell Titer Glo (Biological Method 4)
Type: cell-based
Conditions: Homo sapiens; ovarian cancer cell line A2780
pEC50: −log10 of the molar value.
REPORTED_PROPERTY: pEC50

In [3]: df
Out[3]:
                                  structure           target_under_test   value
0  CS(=O)(=O)N1CCC[C@@H](Oc2cc(-c3cnc(N)nc3N)nc(N3CCOCC3)n2)C1  A2780 ovarian cancer cells  > 5.00
1  CCN(CC)Cc1cnc(Nc2cc(-c3cnc(N)cc3C(F)(F)F)nc(N3CCOCC3)n2)s1  A2780 ovarian cancer cells  > 5.00
2  Nc1ccc(-c2cc(N3CCOCC3)nc(N3CCOCC3)n2)c(F)n1  A2780 ovarian cancer cells  > 5.00

Attribution: patent US8217035B2
